Assay: qHTS assay to identify small molecule antagonists of the TGF-beta/Smad signaling pathway - cell viability counter screen (AID 1346824); also: nearly all actives have a fitted effect of over 50% in size
Conditions: SBE-bla HEK293T viability, CellTiter-Glo luminescence; series mostly up to 76.8 µM
Excerpt: U.S. Tox21 Program National Center for Advancing Translational Sciences [NCATS] NIH Chemical Genomics Center [NCGC] U.S. Environmental Protection Agency [EPA] National Institutes of Environmental Health Sciences [NIEHS] National Toxicology Program [NTP] U.S. Food and Drug Administration [FDA] […]
Results filed as inconclusive are left out. The source made the active and inactive calls. Calls follow the shape of the dose curve; as a rule, active = well fitted cell-killing curve with a large enough effect in the repeat runs; inconclusive = weak or mixed curves; inactive = flat fitted curve, though single readings scatter.
Outcome codes: active, inactive

Compound | Cat
O=c1[nH]c(Cl)c(Cl)cc1Cl | inactive
Brc1ccc(Oc2ccc(Br)cc2Br)c(Br)c1 | inactive
O=S1(=O)OCC2C(CO1)C1(Cl)C(Cl)=C(Cl)C2(Cl)C1(Cl)Cl (centres undefined) | inactive
C[C@]12Cc3cn[nH]c3C[C@@H]1CC[C@@H]1[C@@H]2CC[C@@]2(C)[C@H]1CC[C@]2(C)O | inactive
C#CCO | inactive
CC(=O)[O][Pb]([c]1ccccc1)([c]1ccccc1)[c]1ccccc1 | active
Oc1ccc(Cl)c(Cl)c1 | inactive
BrCC(Br)(Br)Br | inactive
CNN | inactive
CC(Cc1ccc(OCC(=O)O)cc1)NCC(O)c1csc(C(F)(F)F)n1 (centres undefined) | inactive
N#Cc1c[nH]cc1-c1cccc2c1OC(F)(F)O2 | inactive
CCOP(=O)(OCC)Oc1nc(Cl)c(Cl)cc1Cl | inactive
CCN(CC)C(=O)N[C@@H]1C=C2c3cccc4[nH]cc(c34)C[C@@H]2N(C)C1 | inactive
Cc1nn(-c2cc(NS(C)(=O)=O)c(Cl)cc2Cl)c(=O)n1C(F)F | inactive
Cc1c([N+](=O)[O-])c(C)c([N+](=O)[O-])c(C(C)(C)C)c1[N+](=O)[O-] | inactive
C[C@]12C/C(=C/O)C(=O)C[C@@H]1CC[C@@H]1[C@@H]2CC[C@@]2(C)[C@H]1CC[C@]2(C)O | inactive
S=C=NCCc1ccccc1 | inactive
O=[N+]([O-])c1cccc2cccc([N+](=O)[O-])c12 | inactive
CC(C)(C)c1ccc(OP(=O)(Oc2ccccc2)Oc2ccccc2)cc1 | inactive
CC1=C2C[C@H]3[C@@H](CC=C4C[C@@H](O)CC[C@@]43C)[C@@H]2CC[C@]12O[C@@H]1C[C@H](C)CN[C@H]1[C@H]2C | inactive
COc1ccc2[nH]cc(CCN(C(C)C)C(C)C)c2c1 | inactive
Cc1cc(C2CC2)nc(Nc2ccccc2)n1 | inactive
O=NN(CCO)CCO | inactive
CN/C(=N\[N+](=O)[O-])NCc1cnc(Cl)s1 | inactive
O=[N+]([O-])c1ccc(Cl)c(Cl)c1Cl | inactive
CCC[CH2][Sn]([CH2]CCC)([O]C(C)=O)[O]C(C)=O | inactive
COc1ccc(Cc2nccc3cc(OC)c(OC)cc23)cc1OC | inactive
CCC1(CC)C(=O)N=C(O)NC1=O | inactive
COC(=O)c1ccccc1S(=O)(=O)NC(=O)Nc1nc(C)nc(OC)n1 | inactive

* * *

Assay: qHTS assay to identify small molecule antagonists of the estrogen receptor beta (ER-beta) signaling pathway - cell viability counter screen (AID 1259382);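 also: HEK293T cells carrying ER-beta-UAS-bla reporter stimulated with estradiol; nearly all actives have a fitted effect of over 55% in size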
Details: ER-beta-UAS-bla HEK293T viability, CellTiter-Glo luminescence, 16 h; series mostly up to 92.4 µM
Records with an inconclusive call do not appear. Calls of active or inactive are those of the source. The call rests on the fitted dose curve; in most records, active means well fitted cell-killing curve with a large enough effect in the repeat runs; inconclusive means weak or mixed curves; inactive means flat fitted curve, though single readings scatter.

Compound | outcome
CC(=O)[O-].CC(=O)[O-].O.O.[Zn+2] | inactive
CCn1cc[n+](C)c1 (tested in a mixture with another compound) | inactive
O=c1c2ccccc2c(=O)c2c1cc(Cl)c1[nH]c3c([nH]c12)c(Cl)cc1c(=O)c2ccccc2c(=O)c13 | inactive

meta.source: PubChem BioAssay (Tox21)
